We begin with a simple list: items and their reported pKi.
Target sequence: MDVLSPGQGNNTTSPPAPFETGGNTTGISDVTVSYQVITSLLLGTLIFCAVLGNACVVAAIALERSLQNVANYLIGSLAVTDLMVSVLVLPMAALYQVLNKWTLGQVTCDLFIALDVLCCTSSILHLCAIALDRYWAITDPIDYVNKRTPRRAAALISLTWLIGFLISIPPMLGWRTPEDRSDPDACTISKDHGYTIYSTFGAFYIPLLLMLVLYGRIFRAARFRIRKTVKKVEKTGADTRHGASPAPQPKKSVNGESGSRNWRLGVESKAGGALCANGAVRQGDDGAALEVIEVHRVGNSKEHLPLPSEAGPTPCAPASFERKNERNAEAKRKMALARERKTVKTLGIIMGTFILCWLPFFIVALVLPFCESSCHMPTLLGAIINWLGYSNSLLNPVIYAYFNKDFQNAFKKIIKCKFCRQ
Remember the convention: pKi equals -log10 of concentration in molar.

Worked cases, answers included:
molecule	pKi
OC(CCN1CCN(c2ccccn2)CC1)c1ccccc1 (stereo not drawn)	6.81
Clc1ccc(N2CCN(CCC(Oc3ccc4c(c3)OCO4)c3ccccc3)CC2)cc1 (stereo not drawn)	6.26

// fetch pKi given entry O=C(CCN1CCN(c2ccc(Cl)cc2)CC1)c1ccccc1
6.10

###

Measured Ki of individual entries
Target protein (sequence): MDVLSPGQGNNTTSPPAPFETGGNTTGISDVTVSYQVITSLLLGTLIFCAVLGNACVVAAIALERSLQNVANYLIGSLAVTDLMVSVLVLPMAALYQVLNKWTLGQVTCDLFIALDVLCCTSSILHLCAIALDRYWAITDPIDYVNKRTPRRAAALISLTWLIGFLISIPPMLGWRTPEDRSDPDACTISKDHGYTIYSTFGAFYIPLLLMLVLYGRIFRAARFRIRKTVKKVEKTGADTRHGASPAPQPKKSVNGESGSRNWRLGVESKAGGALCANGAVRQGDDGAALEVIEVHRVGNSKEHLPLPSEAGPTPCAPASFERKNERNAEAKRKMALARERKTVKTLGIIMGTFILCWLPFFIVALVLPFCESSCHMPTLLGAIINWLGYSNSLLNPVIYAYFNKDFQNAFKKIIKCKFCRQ
The answer is to be given in nM; state only the numeric part.

Worked set:
compound	Ki (nM)
Cc1cc(C(=O)CCN2CCN(c3cccc4ccccc34)CC2)c(C)s1	100
COc1ccc(N2CCN(CCC(O)c3ccccc3)CC2)cc1 (stereo not drawn)	5010
FC(F)(F)c1ccc(OC(CCN2CCN(c3ccccc3Cl)CC2)c2ccccc2)cc1 (stereo not drawn)	5010

Name the recorded Ki of the compound listed here: COc1ccccc1N1CCN(CCC(O)c2csc3ccccc23)CC1 (stereo not drawn)
20

Let me know recorded Ki for COc1ccccc1N1CCN(CCC(=O)c2ccc3ccccc3c2)CC1 , thanks.
251

Note down Ki recorded for O=C(CCN1CCN(c2ccc([N+](=O)[O-])cc2)CC1)c1ccccc1
5010

Annotate the compound OC(CCN1CCN(c2ccc(Cl)cc2)CC1)c1csc2ccccc12 (stereo not drawn) with its measured Ki.
5010

Item COc1ccccc1N1CCN(CCC(O)c2ccc(C)s2)CC1 (stereo not drawn) : provide Ki
33.9

Please report Ki for the following compound: COc1ccc(N2CCN(CCC(Oc3ccc(C(F)(F)F)cc3)c3ccccc3)CC2)cc1 (stereo not drawn)
5010

Indicate the recorded Ki value for this compound: COc1ccccc1N1CCN(CCC(=O)c2ccc([N+](=O)[O-])s2)CC1
339

Identify measured Ki corresponding to COc1ccccc1N1CCN(CCC(Oc2ccc(C(F)(F)F)cc2)c2ccsc2)CC1 (stereo not drawn)
257

Please look at this compound and report its Ki: OC(CCN1CCN(c2ccc(Cl)cc2)CC1)c1ccccc1 (stereo not drawn)
794

Check the records and state Ki for COc1ccccc1N1CCN(CCC(O)c2ccccc2)CC1 (stereo not drawn)
47.9

Using known records, supply Ki for Fc1ccc(N2CCN(CCC(Oc3ccc(C(F)(F)F)cc3)c3ccccc3)CC2)cc1 (stereo not drawn)
5010

Provide one value: measured Ki of COc1ccccc1N1CCN(CCC(=O)c2csc3ccccc23)CC1
43.7

Please report Ki for the following compound: COc1ccccc1N1CCN(CCC(Oc2ccc(C(F)(F)F)cc2)c2ccccc2)CC1 (stereo not drawn)
447

Indicate its recorded Ki; the compound in question is O=[N+]([O-])c1ccc(N2CCN(CCC(O)c3ccccc3)CC2)cc1 (stereo not drawn)
5010
